Test Method Notes: Growth inhibition of CHO cells expressing PDL-1/TCRa incubated for 24 hrs by Cell Titer-Glo luminescent cell viability assay
Type: cell-based, Cricetulus griseus
Condition Parameters: chinese hamster
Recorded Metric: GI50 at 24 h

## Task Please give measured GI50 at 24 h of the following entry: Cc1c(COc2cc(OCc3cccc(C#N)c3)c(CN3C[C@H](O)C[C@@H]3C(=O)O)cc2Cl)cccc1-c1ccc2c(c1)OCCO2
## Result > 30 µM

## Task Entry O=C(O)[C@H](CO)NCc1ccc2c(Nc3cccc(-c4ccc5c(c4)OCCO5)c3Cl)nsc2c1 needs its GI50 at 24 h filled in; supply it.
## Result > 30 µM
